# test system: SGLT1 (Homo sapiens, UniProt P13866)
# Construct: expressed in transfected cells
# Sequence (P13866 whole entry): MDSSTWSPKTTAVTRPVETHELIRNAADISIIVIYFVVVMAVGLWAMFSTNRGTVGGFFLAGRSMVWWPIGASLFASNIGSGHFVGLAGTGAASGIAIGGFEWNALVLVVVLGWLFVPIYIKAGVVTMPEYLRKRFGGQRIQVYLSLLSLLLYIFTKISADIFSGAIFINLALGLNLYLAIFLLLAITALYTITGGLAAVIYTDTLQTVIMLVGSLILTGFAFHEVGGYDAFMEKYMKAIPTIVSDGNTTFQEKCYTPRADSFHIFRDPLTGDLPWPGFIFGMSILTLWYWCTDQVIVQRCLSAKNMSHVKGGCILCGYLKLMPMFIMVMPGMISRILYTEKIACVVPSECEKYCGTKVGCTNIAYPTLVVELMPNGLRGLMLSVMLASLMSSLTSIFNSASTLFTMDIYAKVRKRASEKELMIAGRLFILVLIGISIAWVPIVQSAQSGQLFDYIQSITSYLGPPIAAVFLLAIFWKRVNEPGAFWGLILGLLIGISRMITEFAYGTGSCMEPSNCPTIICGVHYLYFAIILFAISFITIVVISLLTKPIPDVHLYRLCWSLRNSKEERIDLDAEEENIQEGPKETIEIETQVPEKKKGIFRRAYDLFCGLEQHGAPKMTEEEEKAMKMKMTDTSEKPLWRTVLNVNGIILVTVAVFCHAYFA
# test method notes: Change in SGLT1 inhibition according to drug pretreatment time (CHO-SGLT1)
# Format: cell-based
# condition: IC50 according to pretreatment time (nM), SGLT1, 2 h, 2 h pretreatment in sodium-free buffer, CHO-SGLT1
measured property: IC50 (nM)

>  <compound>
OC[C@H]1O[C@@H](c2cc(Cc3ccc(C4CC4)cc3)c(Cl)c3c2CCO3)[C@H](O)[C@@H](O)[C@@H]1O [Enavogliflozin]

>  <IC50 / nM>
829

$$$$

a = OC[C@H]1O[C@@H](c2cc(Cc3ccc(C4CC4)cc3)c(Cl)c3c2CC(O)O3)[C@H](O)[C@@H](O)[C@@H]1O (stereo partly drawn) [M1]
b = OC[C@H]1O[C@@H](c2cc(Cc3ccc(C4(O)CC4)cc3)c(Cl)c3c2CCO3)[C@H](O)[C@@H](O)[C@@H]1O [M2]
Request: Response body: label of entry with the larger IC50; valid values a , b . Write the label of whichever entry you select.
Result: b

---

# test system: SGLT1 (Homo sapiens, UniProt P13866)
# Construct: expressed in transfected cells
# test method notes: Change in SGLT1 inhibition according to drug pretreatment time (CHO-SGLT1)
# Format: cell-based
# condition: no pretreatment, CHO-SGLT1; read-out: IC50 according to pretreatment time (nM), SGLT1, 0 h
measured property: IC50 (nM)

>  <compound>
OC[C@H]1O[C@@H](c2cc(Cc3ccc(C4(O)CC4)cc3)c(Cl)c3c2CCO3)[C@H](O)[C@@H](O)[C@@H]1O

>  <measured property>
IC50

>  <number>
1080

$$$$

I = OC[C@H]1O[C@@H](c2cc(Cc3ccc(C4CC4)cc3)c(Cl)c3c2CCO3)[C@H](O)[C@@H](O)[C@@H]1O
II = OC[C@H]1O[C@@H](c2cc(Cc3ccc(C4CC4)cc3)c(Cl)c3c2CC(O)O3)[C@H](O)[C@@H](O)[C@@H]1O (stereo partly drawn)
Request: Min IC50? I | II Write the label of whichever entry you select.
Result: II

---

# test system: SGLT2 (Homo sapiens, UniProt P31639)
# Construct: expressed in transfected cells
# Sequence (P31639 whole entry): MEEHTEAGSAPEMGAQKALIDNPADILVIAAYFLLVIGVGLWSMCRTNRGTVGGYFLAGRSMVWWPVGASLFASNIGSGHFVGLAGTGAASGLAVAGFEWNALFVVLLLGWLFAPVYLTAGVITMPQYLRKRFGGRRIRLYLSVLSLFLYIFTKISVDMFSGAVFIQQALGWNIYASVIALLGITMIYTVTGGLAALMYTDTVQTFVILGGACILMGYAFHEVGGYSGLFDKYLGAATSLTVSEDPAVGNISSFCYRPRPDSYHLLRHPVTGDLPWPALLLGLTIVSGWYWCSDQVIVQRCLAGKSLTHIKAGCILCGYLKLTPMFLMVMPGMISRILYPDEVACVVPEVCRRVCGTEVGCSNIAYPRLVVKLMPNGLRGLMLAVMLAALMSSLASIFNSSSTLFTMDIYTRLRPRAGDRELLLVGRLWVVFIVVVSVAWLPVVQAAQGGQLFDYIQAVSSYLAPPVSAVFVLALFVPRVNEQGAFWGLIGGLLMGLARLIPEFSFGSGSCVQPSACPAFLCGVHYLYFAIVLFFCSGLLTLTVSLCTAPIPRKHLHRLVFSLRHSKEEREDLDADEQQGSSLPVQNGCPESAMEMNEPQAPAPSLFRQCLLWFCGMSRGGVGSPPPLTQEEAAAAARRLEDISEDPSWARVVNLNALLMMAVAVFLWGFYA
# test method notes: Change in SGLT2 inhibition according to drug pretreatment time (CHO-SGLT2)
# Assay type: cell-based
# condition: no pretreatment, CHO-SGLT2; read-out: IC50 according to pretreatment time (nM), SGLT2, 0 h
measured property: IC50 (nM)

A = OC[C@H]1O[C@@H](c2cc(Cc3ccc(C4CC4)cc3)c(Cl)c3c2CC(O)O3)[C@H](O)[C@@H](O)[C@@H]1O (stereo partly shown)
B = OC[C@H]1O[C@@H](c2cc(Cc3ccc(C4(O)CC4)cc3)c(Cl)c3c2CCO3)[C@H](O)[C@@H](O)[C@@H]1O
C = OC[C@H]1O[C@@H](c2cc(Cc3ccc(C4CC4)cc3)c(Cl)c3c2CCO3)[C@H](O)[C@@H](O)[C@@H]1O
Request: Ordering: ascending IC50. Reply with the item labels sorted in the order that was asked for.
Result: C, B, A
(C: 0.388 nM, B: 2.75 nM, A: 8.44 nM)

---

# test system: SGLT1 (Homo sapiens)
# Construct: expressed in transfected cells
# test method notes: Change in SGLT1 inhibition according to drug pretreatment time (CHO-SGLT1)
# Type: cell-based
# condition: IC50 according to pretreatment time (nM), SGLT1, 1 h, 1 h pretreatment in sodium-free buffer, CHO-SGLT1
measured property: IC50 (nM)

>  <compound>
OC[C@H]1O[C@@H](c2cc(Cc3ccc(C4(O)CC4)cc3)c(Cl)c3c2CCO3)[C@H](O)[C@@H](O)[C@@H]1O [M2]

>  <unit string>
nM

>  <IC50>
1020

$$$$

1 = OC[C@H]1O[C@@H](c2cc(Cc3ccc(C4CC4)cc3)c(Cl)c3c2CCO3)[C@H](O)[C@@H](O)[C@@H]1O [Enavogliflozin]
2 = OC[C@H]1O[C@@H](c2cc(Cc3ccc(C4CC4)cc3)c(Cl)c3c2CC(O)O3)[C@H](O)[C@@H](O)[C@@H]1O (stereo partly drawn) [M1]
Request: Response body: label of entry with the larger IC50; valid values 1 , 2 . Write the label of whichever entry you select.
Result: 1
